Measured values drawn from the Immune Epitope Database (IEDB) for this set.

# EXPERIMENTAL_TARGET: HLA-B*51:01
# TEST_METHOD_NOTES: IEDB peptide-MHC binding, purified MHC/competitive/radioactivity; filed as Kd, often an IC50 or EC50 that approximates it; bounds were set here for any values at or beyond the usual limits of such assays
# EXPERIMENTAL_CONDITIONS: source organism: Mus musculus
pKd: −log10 of the molar value.
MEASURE: pKd

Provide measured pKd value, entry: SPGDLQTLAL ≤ 4.30

----------
# EXPERIMENTAL_TARGET: HLA-B*53:01
# TEST_METHOD_NOTES: IEDB peptide-MHC binding, purified MHC/competitive/radioactivity; bounds were set here for any values at or beyond the usual limits of such assays
# EXPERIMENTAL_CONDITIONS: source organism: Mus musculus
MEASURE: pIC50
In plain terms, pIC50 is the concentration in mol/L turned into minus its base-10 logarithm.

Provide measured pIC50 value, entry: SPGDLQTLAL 4.96
